// Ki collected for human serotonin transporter (Homo sapiens, UniProt P31645)
Counter-ions that a name gives are not always drawn.

- N#Cc1ccccc1-c1ccccc1CO[C@H]1CCNC1: ≥ 10000 nM
- COc1ccc(-c2ccc(F)cc2CO[C@H]2CCNC2)cc1C: 292 nM

QUERY: # query: Ki | item "Cc1cc(F)ccc1-c1ccc(F)cc1CO[C@H]1CCNC1" | system: human serotonin transporter (Homo sapiens, UniProt P31645)
RESULT: 372 nM

QUERY: # query: Ki | item c1cncc(-c2ccccc2CO[C@H]2CCNC2)c1 [Example A-27, hydrochloride] | system: human serotonin transporter (Homo sapiens, UniProt P31645)
RESULT: 211 nM

QUERY: # query: Ki | item "Cc1ccc(C)c(-c2ccc(F)cc2CO[C@H]2CCNC2)c1" | system: human serotonin transporter (Homo sapiens, UniProt P31645)
RESULT: 268 nM

QUERY: # query: Ki | item FC(F)(F)c1cccc(-c2ccccc2CO[C@H]2CCNC2)c1 [Example A-18, hydrochloride] | system: human serotonin transporter (Homo sapiens, UniProt P31645)
RESULT: 13 nM
